Examples of sequences with documented binding signal follow.
Target: SALL4 ZFC4 R900W (HT-SELEX) (Mus musculus, UniProt Q8BX22 870-940, R900W)
Sequence: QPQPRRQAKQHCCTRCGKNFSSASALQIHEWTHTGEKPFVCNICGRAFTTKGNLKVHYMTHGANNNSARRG
Assay: HT-SELEX; high values mean tight binding
Conditions: protein: recombinant; vector His6-GST; dsDNA, one strand shown
I only need the number, in fold-change vs cycle 0, no unit after it.

[[record]]
sequence_text = "ATTAAC"
value_type = "binding signal"
data_value = 2.1

[[record]]
sequence_text = "AAGCAC"
value_type = "binding signal"
data_value = 0.678

[[record]]
sequence_text = "GGAACC"
value_type = "binding signal"
data_value = 0.539

[[record]]
sequence_text = "ACTTCA"
value_type = "binding signal"
data_value = 1.53


Indicate its recorded binding signal; the sequence in question is GGAGAA 0.985

Indicate its recorded binding signal; the sequence in question is CGCCAA 0.185

Indicate its recorded binding signal; the sequence in question is ATAAAT 2.56

---

Molecular target: SALL4 ZFC4 WT (HT-SELEX) (Mus musculus, UniProt Q8BX22 870-940)
Sequence: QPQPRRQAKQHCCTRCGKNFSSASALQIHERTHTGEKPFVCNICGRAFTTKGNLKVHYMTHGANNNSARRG
Assay: HT-SELEX; high values mean tight binding
Conditions: protein: recombinant; vector His6-GST; dsDNA, one strand shown
The recorded binding signal of each item maps onto one of these classes: b0 = under 0.6 fold-change vs cycle 0, b1 = from 0.6 fold-change vs cycle 0 up to 1 fold-change vs cycle 0, b2 = 1 fold-change vs cycle 0 and over

Record excerpt, results attached:
[[record]]
sequence_text = "TGGTAA"
tgt = "SALL4 ZFC4 WT (HT-SELEX) (Mus musculus, UniProt Q8BX22 870-940)"
cat = "b2"

[[record]]
sequence_text = "TAGCCA"
tgt = "SALL4 ZFC4 WT (HT-SELEX) (Mus musculus, UniProt Q8BX22 870-940)"
cat = "b0"


Into which bin does this sequence go? TCCGAA b1

Into which bin does this sequence go? AAGAAG b2

Into which bin does this sequence go? ATAGGA b2

Into which bin does this sequence go? GCTCCA b0

Into which bin does this sequence go? CTTAAC b2

Into which bin does this sequence go? AGATTG b2

Into which bin does this sequence go? TGACCA b1

Into which bin does this sequence go? AACCAG b1

Into which bin does this sequence go? ACACCG b0

Into which bin does this sequence go? TGAACA b2

---

Examples of sequences with documented binding signal follow.
Biological target: SALL4 ZFC4 G921D (HT-SELEX) (Mus musculus, UniProt Q8BX22 870-940, G921D)
Sequence: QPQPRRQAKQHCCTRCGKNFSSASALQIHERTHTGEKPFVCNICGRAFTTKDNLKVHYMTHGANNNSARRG
Assay: HT-SELEX; high values mean tight binding
Settings: protein: recombinant; vector His6-GST; dsDNA, one strand shown
I only need the number, in fold-change vs cycle 0, no unit after it.

[[record]]
sequence_text = "CATCTC"
tgt = "SALL4 ZFC4 G921D (HT-SELEX) (Mus musculus, UniProt Q8BX22 870-940, G921D)"
data_value = 1.01

[[record]]
sequence_text = "ACTCAG"
tgt = "SALL4 ZFC4 G921D (HT-SELEX) (Mus musculus, UniProt Q8BX22 870-940, G921D)"
data_value = 0.994

[[record]]
sequence_text = "ACCGGG"
tgt = "SALL4 ZFC4 G921D (HT-SELEX) (Mus musculus, UniProt Q8BX22 870-940, G921D)"
data_value = 0.357

[[record]]
sequence_text = "GCTGAA"
tgt = "SALL4 ZFC4 G921D (HT-SELEX) (Mus musculus, UniProt Q8BX22 870-940, G921D)"
data_value = 0.774

[[record]]
sequence_text = "CATATG"
tgt = "SALL4 ZFC4 G921D (HT-SELEX) (Mus musculus, UniProt Q8BX22 870-940, G921D)"
data_value = 1.32

[[record]]
sequence_text = "CCACGC"
tgt = "SALL4 ZFC4 G921D (HT-SELEX) (Mus musculus, UniProt Q8BX22 870-940, G921D)"
data_value = 0.248


Indicate its recorded binding signal; the sequence in question is CGCGGA 0.199

Indicate its recorded binding signal; the sequence in question is ACATAC 1.33

---

Target: SALL4 ZFC4 G921D (HT-SELEX) (Mus musculus, UniProt Q8BX22 870-940, G921D)
Sequence: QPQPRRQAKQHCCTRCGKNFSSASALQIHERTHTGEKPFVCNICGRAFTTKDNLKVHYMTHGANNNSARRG
Assay: HT-SELEX; high values mean tight binding
Conditions: protein: recombinant; vector His6-GST; dsDNA, one strand shown
Is binding signal at least 0.9 fold-change vs cycle 0? Then rule met. If not, rule not met.

Record excerpt, results attached:
[[record]]
sequence_text = "GAAATC"
tgt = "SALL4 ZFC4 G921D (HT-SELEX) (Mus musculus, UniProt Q8BX22 870-940, G921D)"
cat = "rule met"

[[record]]
sequence_text = "AATGCC"
tgt = "SALL4 ZFC4 G921D (HT-SELEX) (Mus musculus, UniProt Q8BX22 870-940, G921D)"
cat = "rule not met"

[[record]]
sequence_text = "CCGCCC"
tgt = "SALL4 ZFC4 G921D (HT-SELEX) (Mus musculus, UniProt Q8BX22 870-940, G921D)"
cat = "rule not met"

[[record]]
sequence_text = "ACGCCC"
tgt = "SALL4 ZFC4 G921D (HT-SELEX) (Mus musculus, UniProt Q8BX22 870-940, G921D)"
cat = "rule not met"

[[record]]
sequence_text = "AATGTC"
tgt = "SALL4 ZFC4 G921D (HT-SELEX) (Mus musculus, UniProt Q8BX22 870-940, G921D)"
cat = "rule met"

[[record]]
sequence_text = "GCACCC"
tgt = "SALL4 ZFC4 G921D (HT-SELEX) (Mus musculus, UniProt Q8BX22 870-940, G921D)"
cat = "rule not met"

[[record]]
sequence_text = "GCAGGA"
tgt = "SALL4 ZFC4 G921D (HT-SELEX) (Mus musculus, UniProt Q8BX22 870-940, G921D)"
cat = "rule not met"

[[record]]
sequence_text = "TCTACA"
tgt = "SALL4 ZFC4 G921D (HT-SELEX) (Mus musculus, UniProt Q8BX22 870-940, G921D)"
cat = "rule met"

[[record]]
sequence_text = "CAGCGG"
tgt = "SALL4 ZFC4 G921D (HT-SELEX) (Mus musculus, UniProt Q8BX22 870-940, G921D)"
cat = "rule not met"

[[record]]
sequence_text = "AATCGT"
tgt = "SALL4 ZFC4 G921D (HT-SELEX) (Mus musculus, UniProt Q8BX22 870-940, G921D)"
cat = "rule met"


Now let's try a different one.
Test whether the sequence GGTTAA records binding signal of 0.9 fold-change vs cycle 0 or higher. rule met

---

Biological target: SALL4 ZFC4 G921D (HT-SELEX) (Mus musculus, UniProt Q8BX22 870-940, G921D)
Sequence: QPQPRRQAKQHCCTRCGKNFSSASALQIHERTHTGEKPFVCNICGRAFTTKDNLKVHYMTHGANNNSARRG
Experiment: HT-SELEX; high values mean tight binding
Settings: protein: recombinant; vector His6-GST; dsDNA, one strand shown
value type: binding signal (fold-change vs cycle 0)
I only need the number, in fold-change vs cycle 0, no unit after it.

Some sequences with recorded binding signal:
[[record]]
sequence_text = "CTTAAG"
value_type = "binding signal"
unit_text = "fold-change vs cycle 0"
data_value = 1.46

[[record]]
sequence_text = "GAATCA"
value_type = "binding signal"
unit_text = "fold-change vs cycle 0"
data_value = 1.38

[[record]]
sequence_text = "ACTGCG"
value_type = "binding signal"
unit_text = "fold-change vs cycle 0"
data_value = 0.407

[[record]]
sequence_text = "CAGAAC"
value_type = "binding signal"
unit_text = "fold-change vs cycle 0"
data_value = 0.863


Return reported binding signal for target or system SALL4 ZFC4 G921D (HT-SELEX) (Mus musculus, UniProt Q8BX22 870-940, G921D), item CAGGGC . 0.31

Return reported binding signal for target or system SALL4 ZFC4 G921D (HT-SELEX) (Mus musculus, UniProt Q8BX22 870-940, G921D), item GACGAC . 0.474

Return reported binding signal for target or system SALL4 ZFC4 G921D (HT-SELEX) (Mus musculus, UniProt Q8BX22 870-940, G921D), item CTTGGC . 0.45

Return reported binding signal for target or system SALL4 ZFC4 G921D (HT-SELEX) (Mus musculus, UniProt Q8BX22 870-940, G921D), item CAGCCA . 0.442

Return reported binding signal for target or system SALL4 ZFC4 G921D (HT-SELEX) (Mus musculus, UniProt Q8BX22 870-940, G921D), item GAGACC . 0.643

Return reported binding signal for target or system SALL4 ZFC4 G921D (HT-SELEX) (Mus musculus, UniProt Q8BX22 870-940, G921D), item ACTGCC . 0.469

Return reported binding signal for target or system SALL4 ZFC4 G921D (HT-SELEX) (Mus musculus, UniProt Q8BX22 870-940, G921D), item GACGTC . 0.522

Return reported binding signal for target or system SALL4 ZFC4 G921D (HT-SELEX) (Mus musculus, UniProt Q8BX22 870-940, G921D), item ACCGAA . 0.776
